# credit: patent US8952024B2

Can you tell me Plant response rating, Corn for the items I'm about to list?
# Tested on: corn (Zea mays)
# procedure_text: Test A pre-/postemergence plant response
# Type: in vivo
# setup_conditions: Preemergence, 500 g ai/ha; visual injury, 0 to 100 scale (0 no effect, 100 complete control), approx. ten days
Numbers only.

Previously resolved entries follow.
O=C1CCCC(O)=C1C(=O)c1cnc(-c2ccccc2)n(C2CCOCC2)c1=O [Compound 129]; 0
CCCn1c(-c2ccccc2F)ncc(C(=O)C2=C(O)CCCC2=O)c1=O [Compound 101]; 0
CCCc1ncc(C(=O)C2=C(O)CCCC2=O)c(=O)n1CCC [Compound 72]; 20

Next up:
# return recorded Plant response rating, Corn for input Cc1cc(Cl)ccc1-n1c(-c2ccccc2)ncc(C(=O)C2=C(O)CCCC2=O)c1=O [Compound 43] 0

----------
# Test system: barnyardgrass (Echinochloa crus-galli)
# procedure_text: Test A pre-/postemergence plant response
# Assay type: in vivo
# setup_conditions: Postemergence, 500 g ai/ha; 0 to 100 scale, 0 = no effect, 100 = complete control; approx. ten days
readout: Plant response rating, Barnyardgrass
One number for each entry.

Previously resolved entries follow.
O=C1CCCC([O-])=C1C(=O)c1cnc(-c2ccccc2)n(-c2ccc(Cl)cc2)c1=O.[K+]; 90
Cc1ccc(F)cc1-n1c(-c2cccc(Br)c2)ncc(C(=O)C2=C(O)CCCC2=O)c1=O; 90
Cc1cccc(C)c1-n1c(-c2ccccc2)ncc(C(=O)C2=C(O)CCCC2=O)c1=O; 80
CCCn1c(-c2ccc(Br)cc2)ncc(C(=O)C2=C(O)CCCC2=O)c1=O; 60
O=C1CCCC(O)=C1C(=O)c1cnc(-c2ccccc2)n(C2CC2)c1=O; 90
O=C1CCCC([O-])=C1C(=O)c1cnc(-c2ccccc2)n(-c2ccccc2)c1=O.[K+]; 80
CCOCCn1c(-c2ccccc2)ncc(C(=O)C2=C(O)CCCC2=O)c1=O; 90
O=C1CCCC(O)=C1C(=O)c1cnc(-c2cccs2)n(-c2ccccc2)c1=O; 90
CCn1c(-c2ccccc2)ncc(C(=O)C2=C(O)CCCC2=O)c1=O; 90

# return recorded Plant response rating, Barnyardgrass for input `CCCCCCn1c(-c2ccccc2)ncc(C(=O)C2=C(O)CCCC2=O)c1=O` 90

----------
# System: giant foxtail (Setaria faberii)
# procedure_text: Test A pre-/postemergence plant response
# Assay type: in vivo
# setup_conditions: Postemergence, 500 g ai/ha; visual injury, 0 to 100 scale (0 no effect, 100 complete control), approx. ten days
readout: Foxtail, Giant plant response rating
Numbers only.

Previously resolved entries follow.
Cc1cccc(-c2ncc(C(=O)C3=C(O)CCCC3=O)c(=O)n2-c2cc(F)ccc2C)c1; 80
Cc1c(F)cccc1-n1c(-c2ccccc2)ncc(C(=O)C2=C(O)C3CCC(C3)C2=O)c1=O (stereo not shown); 90
CCOCCn1c(-c2cc(F)cc(F)c2)ncc(C(=O)C2=C(O)CCCC2=O)c1=O; 80

For each entry beneath this line, provide reported Foxtail, Giant plant response rating.
1. CCc1ccc(-n2c(-c3cccc(Br)c3)ncc(C(=O)C3=C(O)CCCC3=O)c2=O)cc1
2. CCn1c(-c2cccc(F)c2)ncc(C(=O)C2=C(O)C3CCC(C3)C2=O)c1=O (stereo not shown)
3. O=C1CCCC(O)=C1C(=O)c1cnc(-c2ccco2)n(C2CCCCC2)c1=O
4. CCCn1c(-c2ccc3c(c2)OCCO3)ncc(C(=O)C2=C(O)C3CCC(C3)C2=O)c1=O (stereo not shown)
5. Cc1ccc(F)cc1-n1c(-c2cc(F)cc(F)c2)ncc(C(=O)C2=C(O)CCCC2=O)c1=O

1: 80; 2: 90; 3: 80; 4: 90; 5: 100

For each entry beneath this line, provide reported Foxtail, Giant plant response rating.
1. O=C(C1=C(O)C2CCC(C2)C1=O)c1cnc(-c2ccccc2)n(CC2CCCO2)c1=O (stereo not shown)
2. CCc1ccc(-n2c(-c3cccc(F)c3)ncc(C(=O)C3=C(O)CCCC3=O)c2=O)cc1
3. O=C(C1=C(O)C2CCC(C2)C1=O)c1cnc(-c2cc(F)cc(F)c2)n(-c2ccccc2)c1=O (stereo not shown)
4. C#Cc1ccc(-c2ncc(C(=O)C3=C(O)C4CCC(C4)C3=O)c(=O)n2C2CCCCC2)cc1 (stereo not shown)
5. O=C1CCCC(O)=C1C(=O)c1cnc(C2CC2)n(C2CCCCC2)c1=O
6. CCCn1c(-c2cc(Cl)cc(Cl)c2)ncc(C(=O)C2=C(O)CCCC2=O)c1=O
7. CCc1ccc(-n2c(-c3cccc(C)c3)ncc(C(=O)C3=C(O)CCCC3=O)c2=O)cc1

1. 100
2. 100
3. 100
4. 50
5. 80
6. 90
7. 40

# return recorded Foxtail, Giant plant response rating for input `O=C1CCCC(O)=C1C(=O)c1cnc(-c2cccc(Br)c2)n(C2CCCCC2)c1=O` 90

----------
# Test system: signalgrass (broadleaf signalgrass, Brachiaria platyphylla)
# procedure_text: Test D pre-/postemergence plant response
# Assay type: in vivo
# setup_conditions: Postemergence, 125 g ai/ha; scale 0 to 100 (0 no effect, 100 complete control)
Note to self: values exactly at 60 are YES. So Plant response rating, Signalgrass at or above 60 is YES, below is NO.

O=C1CCCC(O)=C1C(=O)c1cnc(-c2cccs2)n(-c2ccccc2)c1=O; NO

Reported Plant response rating, Signalgrass reaches at least 60 for `O=C1CCCC(O)=C1C(=O)c1cnc(-c2cccnc2)n(-c2ccccc2)c1=O` ? YES

Reported Plant response rating, Signalgrass reaches at least 60 for `Cc1ccc(Cl)cc1-n1c(-c2ccccc2)ncc(C(=O)C2=C(O)CCCC2=O)c1=O` ? YES

Reported Plant response rating, Signalgrass reaches at least 60 for `O=C1CCCC(O)=C1C(=O)c1cnc(-c2ccccc2)n(C2CCCCC2)c1=O` ? NO

----------
# System: Italian ryegrass (Lolium multiflorum)
# procedure_text: Test D pre-/postemergence plant response
# Assay type: in vivo
# setup_conditions: Postemergence, 31 g ai/ha; scale 0 to 100
readout: Plant response rating, Ryegrass, Italian
Numbers only.

CCCCn1c(-c2ccccc2)ncc(C(=O)C2=C(O)C3CCC(C3)C2=O)c1=O (centres unmarked); 0
Cc1ccc(Cl)cc1-n1c(-c2ccccc2)ncc(C(=O)C2=C(O)CCCC2=O)c1=O; 0
O=C1CCCC(O)=C1C(=O)c1cnc(-c2ccccc2)n(C2CCCCC2)c1=O; 0

For each entry beneath this line, provide reported Plant response rating, Ryegrass, Italian.
1. O=C1CCCC(O)=C1C(=O)c1cnc(-c2cccs2)n(-c2ccccc2)c1=O
2. COCCCn1c(-c2cc(F)cc(F)c2)ncc(C(=O)C2=C(O)C3CCC(C3)C2=O)c1=O (centres unmarked)

[0, 5]

----------
# Tested on: yellow nutsedge (Cyperus esculentus)
# procedure_text: Test B pre-/postemergence plant response
# Type: in vivo
# setup_conditions: Postemergence, 62 g ai/ha; scale 0 (no effect) to 100 (complete control); 13 to 15 days
Plant response rating, Nutsedge, Yellow strictly under 40 means t; at 40 or over means f.

Illustrative cases are given below, each with its answer.
Cc1cc(F)ccc1-n1c(-c2ccccc2)ncc(C(=O)C2=C(O)CCCC2=O)c1=O; f
Cc1ccc(-n2c(-c3cccc(Cl)c3)ncc(C(=O)C3=C(O)CCCC3=O)c2=O)cc1; t
CCCCc1ncc(C(=O)C2=C(O)CCCC2=O)c(=O)n1-c1ccccc1C; t

Moving on to the next compound.
Here's an entry: `O=C1CCCC([O-])=C1C(=O)c1cnc(-c2ccccc2)n(-c2ccccc2)c1=O.[K+]` . Is its Plant response rating, Nutsedge, Yellow below 40? t

----------
# Tested on: large crabgrass (Digitaria sanguinalis)
# procedure_text: Test A pre-/postemergence plant response
# Assay type: in vivo
# setup_conditions: Preemergence, 125 g ai/ha; 0 to 100 scale, 0 = no effect, 100 = complete control
Note to self: values exactly at 60 are Condition met. So Plant response rating, Crabgrass, Large at or above 60 is Condition met, below is Condition not met.

CCCn1c(-c2ccn(C)n2)ncc(C(=O)C2=C(O)CCCC2=O)c1=O; Condition not met

Reported Plant response rating, Crabgrass, Large reaches at least 60 for `O=C1CCCC([O-])=C1C(=O)c1cnc(-c2ccccc2)n(-c2ccccc2)c1=O.[K+]` ? Condition not met

Reported Plant response rating, Crabgrass, Large reaches at least 60 for `O=C1CCCC(O)=C1C(=O)c1cnc(-c2cc(F)cc(F)c2)n(CC2CCCCC2)c1=O` ? Condition not met

Reported Plant response rating, Crabgrass, Large reaches at least 60 for `COCCn1c(-c2ccco2)ncc(C(=O)C2=C(O)CCCC2=O)c1=O` ? Condition met

Reported Plant response rating, Crabgrass, Large reaches at least 60 for O=C1CCCC(O)=C1C(=O)c1cnc(-c2cccs2)n(CC2CCCO2)c1=O (centres unmarked) ? Condition not met

Reported Plant response rating, Crabgrass, Large reaches at least 60 for `O=C1CCCC(O)=C1C(=O)c1cnc(-c2ccccc2)n(C2CCCCCC2)c1=O` ? Condition not met

Reported Plant response rating, Crabgrass, Large reaches at least 60 for `COCCOCCn1c(-c2ccccc2)ncc(C(=O)C2=C(O)CCCC2=O)c1=O` ? Condition met

Reported Plant response rating, Crabgrass, Large reaches at least 60 for `O=C1CCCC(O)=C1C(=O)c1cnc(-c2cccs2)n(-c2ccccc2)c1=O` ? Condition met

Reported Plant response rating, Crabgrass, Large reaches at least 60 for `CCCCCCn1c(-c2ccccc2)ncc(C(=O)C2=C(O)CCCC2=O)c1=O` ? Condition not met
